# measuredTarget: TIE2 (Homo sapiens)
# Sequence (Q02763 23-1124, species assumed): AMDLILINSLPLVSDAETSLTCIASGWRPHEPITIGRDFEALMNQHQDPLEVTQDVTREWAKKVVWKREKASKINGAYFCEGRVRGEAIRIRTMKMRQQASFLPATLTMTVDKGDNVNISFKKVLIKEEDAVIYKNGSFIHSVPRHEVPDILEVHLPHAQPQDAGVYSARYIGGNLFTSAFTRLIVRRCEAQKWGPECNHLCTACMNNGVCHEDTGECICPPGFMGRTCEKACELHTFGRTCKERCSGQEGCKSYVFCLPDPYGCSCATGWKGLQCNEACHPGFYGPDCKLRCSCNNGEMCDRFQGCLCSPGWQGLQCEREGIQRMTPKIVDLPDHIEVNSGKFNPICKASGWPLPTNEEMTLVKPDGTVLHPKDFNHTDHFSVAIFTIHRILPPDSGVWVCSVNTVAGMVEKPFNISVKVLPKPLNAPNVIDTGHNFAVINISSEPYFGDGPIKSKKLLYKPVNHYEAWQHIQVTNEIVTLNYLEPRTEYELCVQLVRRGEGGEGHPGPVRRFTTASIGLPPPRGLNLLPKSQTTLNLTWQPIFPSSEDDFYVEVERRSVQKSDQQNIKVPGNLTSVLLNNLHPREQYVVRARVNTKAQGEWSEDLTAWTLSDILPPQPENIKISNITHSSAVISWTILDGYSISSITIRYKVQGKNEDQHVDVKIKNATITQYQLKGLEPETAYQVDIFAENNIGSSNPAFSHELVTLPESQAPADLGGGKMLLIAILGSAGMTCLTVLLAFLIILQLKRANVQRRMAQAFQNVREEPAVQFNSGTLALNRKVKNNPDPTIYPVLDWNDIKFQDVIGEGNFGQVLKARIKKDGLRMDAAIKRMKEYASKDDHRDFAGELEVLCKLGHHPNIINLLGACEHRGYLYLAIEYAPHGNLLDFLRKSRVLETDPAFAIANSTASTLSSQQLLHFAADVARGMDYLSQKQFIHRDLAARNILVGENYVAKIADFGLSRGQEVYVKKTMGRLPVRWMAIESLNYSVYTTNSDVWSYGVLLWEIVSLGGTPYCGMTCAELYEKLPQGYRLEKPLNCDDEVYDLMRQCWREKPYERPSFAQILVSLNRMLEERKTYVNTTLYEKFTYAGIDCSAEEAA
# procedureText: Kinase profiling TIE2
# Format: biochemical
# measurementParameters: 100 micromolar inhibitor concentration; 100 is no change
# From the text: Any value less that 25 is considered to be highly significant inhibition.
A collection of compounds and their measured residual kinase activity, TIE2
// no unit, no text: just the number

Please review the entries below; each comes with its answer.
O=C(Nc1nc2ccc(O)cc2s1)c1ccccc1    41
O=C(Nc1nc2ccc(O)cc2s1)c1cccnc1    81
CC(=O)Nc1nc2cc(C)ccc2s1    95

Now look at this entry.
Which residual kinase activity, TIE2 value is on record for O=C(Nc1nc2cc(O)ccc2s1)c1ccncc1 ?
84

====

# measuredTarget: ULK2 (Homo sapiens, UniProt Q8IYT8)
# Sequence (Q8IYT8 whole entry, species assumed): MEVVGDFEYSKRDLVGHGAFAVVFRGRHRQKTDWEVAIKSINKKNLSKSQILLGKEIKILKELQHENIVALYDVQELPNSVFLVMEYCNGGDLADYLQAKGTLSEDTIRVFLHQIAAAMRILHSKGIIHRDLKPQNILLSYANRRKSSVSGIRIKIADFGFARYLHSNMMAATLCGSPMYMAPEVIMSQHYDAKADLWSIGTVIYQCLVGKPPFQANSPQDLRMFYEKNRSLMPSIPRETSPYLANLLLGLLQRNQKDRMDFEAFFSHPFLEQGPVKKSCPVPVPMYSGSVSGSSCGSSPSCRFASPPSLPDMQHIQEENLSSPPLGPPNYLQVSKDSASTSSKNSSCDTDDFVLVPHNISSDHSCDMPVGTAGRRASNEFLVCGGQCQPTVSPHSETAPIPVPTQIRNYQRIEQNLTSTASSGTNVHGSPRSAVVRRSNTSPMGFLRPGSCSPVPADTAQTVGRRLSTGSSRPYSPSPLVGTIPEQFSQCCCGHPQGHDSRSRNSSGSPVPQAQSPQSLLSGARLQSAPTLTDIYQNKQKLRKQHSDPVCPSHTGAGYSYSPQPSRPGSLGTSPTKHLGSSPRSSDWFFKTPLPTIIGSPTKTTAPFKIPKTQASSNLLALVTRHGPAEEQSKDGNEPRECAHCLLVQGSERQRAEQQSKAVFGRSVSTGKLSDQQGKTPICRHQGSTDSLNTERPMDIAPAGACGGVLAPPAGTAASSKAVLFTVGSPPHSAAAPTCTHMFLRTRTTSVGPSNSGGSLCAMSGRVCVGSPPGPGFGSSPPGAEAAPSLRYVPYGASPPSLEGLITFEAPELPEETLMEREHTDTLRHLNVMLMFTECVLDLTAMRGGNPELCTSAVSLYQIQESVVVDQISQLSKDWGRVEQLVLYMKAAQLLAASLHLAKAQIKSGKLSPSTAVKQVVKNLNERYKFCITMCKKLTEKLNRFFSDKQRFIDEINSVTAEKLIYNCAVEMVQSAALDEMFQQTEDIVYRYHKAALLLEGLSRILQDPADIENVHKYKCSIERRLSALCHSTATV
# procedureText: Kinase profiling ULK2
# Assay type: biochemical
# measurementParameters: 100 micromolar inhibitor concentration; 100 is no change; read-out: residual kinase activity, ULK2
Mark label 1 only for remaining activity at 100 µM values smaller than 80%; exact matches and larger values are label 0.

Example entries begin here.
CC(=O)Nc1nc2ccc(C#N)cc2s1    label 1
CC(=O)Nc1nc2cc(C(F)(F)F)ccc2s1    label 0
COc1ccc2sc(NC(C)=O)nc2c1    label 0

// switching to the query molecule
Item CC(=O)Nc1nc2cc(F)ccc2s1 : remaining activity at 100 µM beneath 80%, strictly?
label 0

====

# measuredTarget: CAMK1 (Homo sapiens, UniProt Q14012)
# Sequence (Q14012 whole entry, species assumed): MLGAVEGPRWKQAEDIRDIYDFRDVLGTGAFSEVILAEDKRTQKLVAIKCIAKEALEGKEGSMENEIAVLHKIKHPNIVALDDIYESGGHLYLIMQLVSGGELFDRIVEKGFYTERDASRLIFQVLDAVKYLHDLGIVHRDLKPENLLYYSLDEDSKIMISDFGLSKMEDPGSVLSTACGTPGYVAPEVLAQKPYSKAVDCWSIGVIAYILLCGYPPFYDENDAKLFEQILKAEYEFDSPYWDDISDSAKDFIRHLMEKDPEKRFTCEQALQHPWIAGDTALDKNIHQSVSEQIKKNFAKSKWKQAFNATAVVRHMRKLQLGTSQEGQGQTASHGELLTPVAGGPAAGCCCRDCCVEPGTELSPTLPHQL
# procedureText: Kinase profiling CAMK1
# Assay type: biochemical
# measurementParameters: 100 micromolar inhibitor concentration; 100 is no change
residual kinase activity, CAMK1 vs 90: at or above is satisfied, below is not satisfied.

Example entries begin here.
O=C(Nc1nc2cc(O)ccc2s1)c1ccccn1 [Compound 03-13]    satisfied
CC(=O)Nc1nc2ccc(F)cc2s1 [Compound 03-94]    not satisfied
N#Cc1ccc2nc(NC(=O)c3ccccc3)sc2c1 [Compound 03-106]    not satisfied
O=C(Nc1nc2cc(O)ccc2s1)c1ccccc1 [Compound 03-102]    not satisfied

# check: residual kinase activity, CAMK1 of O=C(Nc1nc2cc(O)ccc2s1)c1ccncc1 [Compound 03-11] is greater than or equal to 90
not satisfied

====

# measuredTarget: UniProt:P43403
# procedureText: Kinase profiling ZAP70
# Assay type: biochemical
# measurementParameters: 100 micromolar inhibitor concentration; 100 is no change
residual kinase activity, ZAP70 vs 100: at or above is fulfilled, below is not fulfilled.

# check: residual kinase activity, ZAP70 of O=C(Nc1nc2cc(O)ccc2s1)c1ccccn1 is greater than or equal to 100
fulfilled

# check: residual kinase activity, ZAP70 of O=C(Nc1nc2cc(O)ccc2s1)c1ccncc1 is greater than or equal to 100
not fulfilled

# check: residual kinase activity, ZAP70 of O=C(Nc1nc2ccc(O)cc2s1)c1cccnc1 is greater than or equal to 100
not fulfilled

# check: residual kinase activity, ZAP70 of O=C(Nc1nc2ccc(O)cc2s1)c1ccccn1 is greater than or equal to 100
not fulfilled

# check: residual kinase activity, ZAP70 of O=C(Nc1nc2ccc(O)cc2s1)c1ccccc1 is greater than or equal to 100
fulfilled

====

A collection of compounds and their measured residual kinase activity, BRSK1
# measuredTarget: BRSK1 (Homo sapiens, UniProt Q8TDC3)
# Sequence (Q8TDC3 1-778): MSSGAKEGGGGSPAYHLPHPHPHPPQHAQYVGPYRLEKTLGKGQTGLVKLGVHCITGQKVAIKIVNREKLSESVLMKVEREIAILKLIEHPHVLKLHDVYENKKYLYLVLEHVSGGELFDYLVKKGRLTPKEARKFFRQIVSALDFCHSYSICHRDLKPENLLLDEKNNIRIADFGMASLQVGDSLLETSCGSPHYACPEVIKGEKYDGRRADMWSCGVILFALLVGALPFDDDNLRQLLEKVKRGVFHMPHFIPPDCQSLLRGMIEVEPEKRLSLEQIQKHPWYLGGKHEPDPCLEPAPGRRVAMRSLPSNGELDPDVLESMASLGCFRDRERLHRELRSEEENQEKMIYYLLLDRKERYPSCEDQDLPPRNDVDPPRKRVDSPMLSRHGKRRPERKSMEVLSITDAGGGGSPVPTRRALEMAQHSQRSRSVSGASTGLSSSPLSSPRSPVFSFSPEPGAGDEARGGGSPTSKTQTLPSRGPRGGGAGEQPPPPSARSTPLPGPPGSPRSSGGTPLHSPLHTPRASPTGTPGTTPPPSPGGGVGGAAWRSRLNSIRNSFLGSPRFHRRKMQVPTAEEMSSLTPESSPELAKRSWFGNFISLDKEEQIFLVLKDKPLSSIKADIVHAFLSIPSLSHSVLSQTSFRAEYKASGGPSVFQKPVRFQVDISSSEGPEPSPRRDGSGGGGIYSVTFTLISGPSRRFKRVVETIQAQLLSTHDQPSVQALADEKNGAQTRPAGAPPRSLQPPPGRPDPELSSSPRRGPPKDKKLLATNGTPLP
# procedureText: Kinase profiling BRSK1
# Type: biochemical
# measurementParameters: 100 micromolar inhibitor concentration; 100 is no change

Please review the entries below; each comes with its answer.
O=C(Nc1nc2cc(O)ccc2s1)c1cccnc1    83
CC(=O)Nc1nc2ccccc2s1    95
O=C(Nc1nc2cc(O)ccc2s1)c1ccncc1    70

Now look at this entry.
Which residual kinase activity, BRSK1 value is on record for O=C(Nc1nc2ccc(O)cc2s1)c1ccncc1 ?
56

====

# measuredTarget: TBK1 (Homo sapiens, UniProt Q9UHD2)
# Sequence (Q9UHD2 whole entry, species assumed): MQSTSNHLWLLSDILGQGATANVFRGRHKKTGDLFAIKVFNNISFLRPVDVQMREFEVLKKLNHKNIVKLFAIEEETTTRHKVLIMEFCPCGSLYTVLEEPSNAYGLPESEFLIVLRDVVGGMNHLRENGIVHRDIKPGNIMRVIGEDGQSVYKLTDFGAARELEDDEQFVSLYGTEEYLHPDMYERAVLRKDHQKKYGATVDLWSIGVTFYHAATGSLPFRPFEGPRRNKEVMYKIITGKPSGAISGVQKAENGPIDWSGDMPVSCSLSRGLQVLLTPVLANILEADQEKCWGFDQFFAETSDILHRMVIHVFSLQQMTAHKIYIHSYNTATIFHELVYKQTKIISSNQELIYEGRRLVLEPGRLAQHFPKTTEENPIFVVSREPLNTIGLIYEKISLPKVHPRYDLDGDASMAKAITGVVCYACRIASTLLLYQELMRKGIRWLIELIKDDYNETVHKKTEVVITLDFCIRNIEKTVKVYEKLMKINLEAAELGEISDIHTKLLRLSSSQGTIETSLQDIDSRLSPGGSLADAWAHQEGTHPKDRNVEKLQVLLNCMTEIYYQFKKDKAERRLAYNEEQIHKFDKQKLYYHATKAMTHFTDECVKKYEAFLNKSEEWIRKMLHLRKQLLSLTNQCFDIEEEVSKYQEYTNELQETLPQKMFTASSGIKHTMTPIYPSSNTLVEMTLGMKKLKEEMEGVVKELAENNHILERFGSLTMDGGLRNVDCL
# procedureText: Kinase profiling TBK1
# Type: biochemical
# measurementParameters: 100 micromolar inhibitor concentration; 100 is no change; read-out: residual kinase activity, TBK1
attributeMeasured: remaining activity at 100 µM
Entry format: amount then unit.

CC(=O)Nc1nc2ccc(C(F)(F)F)cc2s1    83%

Which remaining activity at 100 µM value is on record for CC(=O)Nc1nc2cc(F)ccc2s1 ?
74%

Which remaining activity at 100 µM value is on record for CC(=O)Nc1nc2ccc(C#N)cc2s1 ?
41%

Which remaining activity at 100 µM value is on record for CC(=O)Nc1nc2ccc([N+](=O)[O-])cc2s1 ?
89%

Which remaining activity at 100 µM value is on record for COc1ccc2sc(NC(C)=O)nc2c1 ?
81%

Which remaining activity at 100 µM value is on record for CC(=O)Nc1nc2ccc(O)cc2s1 ?
43%

Which remaining activity at 100 µM value is on record for CC(=O)Nc1nc2cc(C(F)(F)F)ccc2s1 ?
64%

====

# measuredTarget: DYRK1A (Homo sapiens, UniProt Q13627)
Response field class: string, computed from recorded IC50 by ranges low bracket: < 1000 nM; middle bracket: ≥ 1000 nM and < 10000 nM; high bracket: ≥ 10000 nM

CC(=O)Nc1nc2cc(C(F)(F)F)ccc2s1 [Compound 03-73]    high bracket
CC(=O)Nc1nc2cc(O)ccc2s1 [Compound 01-66]    low bracket
CC(=O)Nc1nc2ccc(F)cc2s1 [Compound 03-94]    high bracket
CC(=O)Nc1nc2cc(F)ccc2s1 [Compound 03-77]    middle bracket

GET /class?item= COc1ccc2nc(NC(C)=O)sc2c1 [Compound 03-20]
high bracket

====

# measuredTarget: RSK1 (Homo sapiens, UniProt Q15418)
# Sequence (Q15418 whole entry, species assumed): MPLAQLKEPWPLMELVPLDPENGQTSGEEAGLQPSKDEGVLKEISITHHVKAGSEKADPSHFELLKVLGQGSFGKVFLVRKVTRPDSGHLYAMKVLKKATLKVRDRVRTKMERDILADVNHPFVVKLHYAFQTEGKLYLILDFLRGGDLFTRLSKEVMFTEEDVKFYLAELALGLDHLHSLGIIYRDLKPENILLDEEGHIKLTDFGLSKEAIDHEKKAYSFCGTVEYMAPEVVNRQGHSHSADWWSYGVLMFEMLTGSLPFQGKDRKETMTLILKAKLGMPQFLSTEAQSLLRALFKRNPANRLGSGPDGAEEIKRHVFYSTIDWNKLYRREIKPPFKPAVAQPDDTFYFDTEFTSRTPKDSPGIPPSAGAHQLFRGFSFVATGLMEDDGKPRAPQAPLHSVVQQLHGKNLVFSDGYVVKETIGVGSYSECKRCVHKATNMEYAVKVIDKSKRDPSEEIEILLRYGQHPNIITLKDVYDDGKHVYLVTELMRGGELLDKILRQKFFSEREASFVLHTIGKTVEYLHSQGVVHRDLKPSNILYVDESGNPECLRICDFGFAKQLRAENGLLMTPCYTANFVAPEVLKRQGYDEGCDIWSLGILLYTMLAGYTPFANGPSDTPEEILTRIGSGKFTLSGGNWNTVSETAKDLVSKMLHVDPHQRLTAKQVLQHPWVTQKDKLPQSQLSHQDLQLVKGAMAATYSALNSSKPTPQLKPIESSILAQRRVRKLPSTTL
# procedureText: Kinase profiling RSK1
# Type: biochemical
# measurementParameters: 100 micromolar inhibitor concentration; 100 is no change
attributeMeasured: residual kinase activity, RSK1
// no unit, no text: just the number

Please review the entries below; each comes with its answer.
O=C(Nc1nc2ccc(O)cc2s1)c1ccccn1    67
CC(=O)Nc1ccc(C(=O)Nc2nc3ccc(O)cc3s2)cc1    19
COc1ccc2nc(NC(=O)c3ccccc3)sc2c1    74
O=C(Nc1nc2ccc(F)cc2s1)c1ccccc1    79

Now look at this entry.
Which residual kinase activity, RSK1 value is on record for COc1ccc2sc(NC(=O)c3ccccc3)nc2c1 ?
64

====

# measuredTarget: MKK2 (Homo sapiens, UniProt P36507)
# Sequence (P36507 whole entry, species assumed): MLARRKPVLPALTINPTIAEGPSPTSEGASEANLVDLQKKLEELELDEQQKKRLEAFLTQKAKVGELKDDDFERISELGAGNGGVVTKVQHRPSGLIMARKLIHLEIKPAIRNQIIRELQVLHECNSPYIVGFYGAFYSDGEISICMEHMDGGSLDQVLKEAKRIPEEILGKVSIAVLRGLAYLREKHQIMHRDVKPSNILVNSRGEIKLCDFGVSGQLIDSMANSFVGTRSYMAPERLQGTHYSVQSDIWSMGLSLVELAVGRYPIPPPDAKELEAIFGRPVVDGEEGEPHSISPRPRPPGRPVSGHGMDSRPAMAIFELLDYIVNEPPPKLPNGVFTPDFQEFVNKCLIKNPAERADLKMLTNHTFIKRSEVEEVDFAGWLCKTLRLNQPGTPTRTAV
# procedureText: Kinase profiling MKK2
# Type: biochemical
# measurementParameters: 100 micromolar inhibitor concentration; 100 is no change
attributeMeasured: residual kinase activity, MKK2
// no unit, no text: just the number

Please review the entries below; each comes with its answer.
CC(=O)Nc1nc2ccccc2s1 [Compound 03-32]    96
O=C(Nc1nc2ccc(O)cc2s1)c1ccccc1 [Compound 03-60]    90
CC(=O)Nc1cccc(C(=O)Nc2nc3cc(O)ccc3s2)c1 [MS:LY-2-89]    47
O=C(Nc1nc2ccc(O)cc2s1)c1ccncc1 [Compound 08-42]    72
CC(=O)NC(C)C(=O)Nc1nc2ccc(C(F)(F)F)cc2s1 (stereo not shown) [Compound 03-80]    75

Which residual kinase activity, MKK2 value is on record for CC(=O)Nc1nc2cc(C)ccc2s1 [Compound 03-76] ?
155

Which residual kinase activity, MKK2 value is on record for O=C(Nc1nc2ccc(O)cc2s1)c1cccnc1 [Compound 08-44] ?
48

Which residual kinase activity, MKK2 value is on record for CC(=O)Nc1ccc(C(=O)Nc2nc3cc(O)ccc3s2)cc1 [MS:LY-2-87] ?
73

Which residual kinase activity, MKK2 value is on record for COc1ccc2sc(NC(=O)c3ccc(NC(C)=O)cc3)nc2c1 [MS:LY-2-77] ?
95

Which residual kinase activity, MKK2 value is on record for O=C(Nc1nc2cc(O)ccc2s1)c1ccncc1 [Compound 03-11] ?
98

Which residual kinase activity, MKK2 value is on record for CC(=O)Nc1ccccc1C(=O)Nc1nc2ccc(O)cc2s1 [Compound 08-39] ?
78

Which residual kinase activity, MKK2 value is on record for O=C(Nc1nc2cc(O)ccc2s1)c1cccnc1 [Compound 03-33] ?
85

Which residual kinase activity, MKK2 value is on record for O=C(Nc1nc2cc(O)ccc2s1)c1ccccn1 [Compound 03-13] ?
82

Which residual kinase activity, MKK2 value is on record for COc1ccc2sc(NC(=O)c3cccc(NC(C)=O)c3)nc2c1 [MS:LY-2-85] ?
80

Which residual kinase activity, MKK2 value is on record for CC(=O)Nc1cccc(C(=O)Nc2nc3ccc(O)cc3s2)c1 [Compound 03-58] ?
86

Which residual kinase activity, MKK2 value is on record for O=C(Nc1nc2ccc(O)cc2s1)c1ccccn1 [Compound 03-12] ?
82

The values you see were collected from patent US10231954B2.
